# Tested on: Human immunodeficiency virus type 1 integrase (Human immunodeficiency virus 1), Q7ZJM1 [Q148K]
# ASSAY_OVERVIEW: Inhibition of pseudotype HIV1 integrase Q148K mutant strand transfer activity in HIV1 infected human CIP4 cells assessed as ratio of IC50 for pseudotype HIV1 integrase Q148K mutant strand transfer activity to IC50 for pseudotype HIV1 integrase strand transfer activity after 2 days by luciferase reporter gene assay
# Format: cell-based
MEASURED_QUANTITY: Ratio IC50

Example cases with answers are listed next.
                               input_smiles  measurement
0  Cn1c(=O)c(C(=O)NCCO)c(O)c2ncc(Cc3ccc(F)cc3)cc21           40
1  N#Cc1c2c(c(O)c3ncc(Cc4cccc(Cl)c4F)cc13)C(=O)N1CCC[C@@H]21           31
2  O=C1c2c(cc3cc(Cc4cccc(Cl)c4F)cnc3c2O)CN2CCCN12          0.4
3  N#Cc1c2c(c(O)c3ncc(Cc4cccc(Cl)c4F)cc13)C(=O)N1CCC[C@@H]1C2          0.8

*Q* State its Ratio IC50: "N#Cc1c2c(c(O)c3ncc(Cc4cccc(Cl)c4F)cc13)C(=O)N1CCC[C@H]1C2"
*A* 1.4

----------
# ASSAY_OVERVIEW: Total clearance in Sprague-Dawley rat at 1 mg/kg, iv or 5 mg/kg, po after 24 hrs by LC-MS/MS analysis
# Format: ADME, organism-based
# RUN_PARAMETERS: in vivo
MEASURED_QUANTITY: clearance (mL/min/kg)
Answer with a number only, understood to be in mL/min/kg.

*Q* State its clearance: "NC(=O)c1c2c(c(O)c3ncc(Cc4cccc(Cl)c4F)cc13)C(=O)N1CCCC[C@H]21"
*A* 1.4

----------
# ASSAY_OVERVIEW: Oral bioavailability in beagle dog after 24 hrs by LC-MS/MS analysis
# Type: ADME, organism-based, Canis lupus familiaris
# RUN_PARAMETERS: in vivo
MEASURED_QUANTITY: bioavailability (%)
Answer with a number only, understood to be in %.

*Q* State its bioavailability: "NC(=O)c1c2c(c(O)c3ncc(Cc4cccc(Cl)c4F)cc13)C(=O)N1CCCC[C@H]21"
*A* 14

----------
# ASSAY_OVERVIEW: Total clearance in iv or po dosed beagle dog after 24 hrs by LC-MS/MS analysis
# Format: ADME, organism-based, Canis lupus familiaris
# RUN_PARAMETERS: in vivo
MEASURED_QUANTITY: clearance (mL/min/kg)
Answer with a number only, understood to be in mL/min/kg.

*Q* State its clearance: "NC(=O)c1c2c(c(O)c3ncc(Cc4cccc(Cl)c4F)cc13)C(=O)N1CCCC[C@H]21"
*A* 2.8

----------
# ASSAY_OVERVIEW: Half life in iv or po dosed beagle dog by LC-MS/MS analysis
# Assay type: ADME, organism-based, Canis lupus familiaris
# RUN_PARAMETERS: in vivo
MEASURED_QUANTITY: half-life (h)
Answer with a number only, understood to be in h.

*Q* State its half-life: "NC(=O)c1c2c(c(O)c3ncc(Cc4cccc(Cl)c4F)cc13)C(=O)N1CCCC[C@H]21"
*A* 11.8

----------
# ASSAY_OVERVIEW: Half life in Sprague-Dawley rat at 1 mg/kg, iv or 5 mg/kg, po by LC-MS/MS analysis
# Type: ADME, organism-based
# RUN_PARAMETERS: in vivo
MEASURED_QUANTITY: half-life (h)
Answer with a number only, understood to be in h.

*Q* State its half-life: "NC(=O)c1c2c(c(O)c3ncc(Cc4cccc(Cl)c4F)cc13)C(=O)N1CCCC[C@H]21"
*A* 7.2

----------
# ASSAY_OVERVIEW: Apparent permeability of compound
# Format: physicochemical
# RUN_PARAMETERS: not told
MEASURED_QUANTITY: Papp (×10⁻⁶ cm/s)
Answer with a number only, understood to be in ×10⁻⁶ cm/s.

*Q* State its Papp: "NC(=O)c1c2c(c(O)c3ncc(Cc4cccc(Cl)c4F)cc13)C(=O)N1CCCC[C@H]21"
*A* 6

----------
# ASSAY_OVERVIEW: Cytotoxicity against human CIP4 cells
# Format: cell-based
MEASURED_QUANTITY: CC50
Give the value; after it, write the unit.

Example cases with answers are listed next.
In [3]: df
Out[3]:
                               input_smiles  measurement
0  NC(=O)c1c2c(c(O)c3ncc(Cc4cccc(Cl)c4F)cc13)C(=O)N1CCCC[C@H]21      24.4 µM
1  N#Cc1c2c(c(O)c3ncc(Cc4cccc(Cl)c4F)cc13)C(=O)N1CCCC[C@@H]21      3.36 µM
2  NC(=O)c1c2c(c(O)c3ncc(Cc4cccc(Cl)c4F)cc13)C(=O)N1CCC[C@@H]1C2      21.1 µM

*Q* State its CC50: "N#Cc1c2c(c(O)c3ncc(Cc4cccc(Cl)c4F)cc13)C(=O)N1CCC[C@@H]21"
*A* 1.83 µM

----------
# Test system: Human immunodeficiency virus type 1 integrase (Human immunodeficiency virus 1), Q7ZJM1 [G140S,Q148H]
# ASSAY_OVERVIEW: Inhibition of pseudotype HIV1 integrase G140S/Q148H double mutant strand transfer activity in HIV1 infected human CIP4 cells assessed as ratio of IC50 for pseudotype HIV1 integrase G140S/Q148H double mutant strand transfer activity to IC50 for pseudotype HIV1 integrase strand transfer activity after 2 days by luciferase reporter gene assay
# Format: cell-based
MEASURED_QUANTITY: Ratio IC50
Answer with the value's number alone.

Example cases with answers are listed next.
                               input_smiles  measurement
0  NC(=O)c1c2c(c(O)c3ncc(Cc4cccc(Cl)c4F)cc13)C(=O)N1CCC[C@H]1C2          2.6
1  N#Cc1c2c(c(O)c3ncc(Cc4cccc(Cl)c4F)cc13)C(=O)N1CCCC[C@@H]21           93
2  N#Cc1c2c(c(O)c3ncc(Cc4cccc(Cl)c4F)cc13)C(=O)N1CCCN1C2            8
3  NC(=O)c1c2c(c(O)c3ncc(Cc4cccc(Cl)c4F)cc13)C(=O)N1CCC[C@@H]1C2          0.4

# evaluate next
*Q* State its Ratio IC50: "N#Cc1c2c(c(O)c3ncc(Cc4cccc(Cl)c4F)cc13)C(=O)N1CCC[C@H]21"
*A* 456
